Biological target: human Gal-1 (hGal-1) (Homo sapiens, UniProt P09382)
Sequence (P09382 whole entry): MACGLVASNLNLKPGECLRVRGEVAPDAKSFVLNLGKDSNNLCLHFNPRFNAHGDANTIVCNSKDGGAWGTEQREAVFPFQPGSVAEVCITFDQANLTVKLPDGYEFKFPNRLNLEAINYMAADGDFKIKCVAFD
pIC50: −log10 of the molar value.
Short version: pIC50 at least 7 is 1, less is -1.

{"compound": "CC1CN(C(=O)[C@H](S[C@@H]2O[C@H](CO)[C@H](O)[C@H](n3cc(-c4cc(F)c(F)c(F)c4)nn3)[C@H]2O)C2(O)CCOCC2)C1 [Example 2.41.205R.]", "target-system": "human Gal-1 (hGal-1) (Homo sapiens, UniProt P09382)", "label-value": -1}
{"compound": "CCN(C)C(=O)C(S[C@@H]1O[C@H](CO)[C@H](O)[C@H](n2cc(-c3cc(C)cc(F)c3)nn2)[C@H]1O)C1(O)CCOCC1 (some centres unmarked) [Example 20.41.203.]", "target-system": "human Gal-1 (hGal-1) (Homo sapiens, UniProt P09382)", "label-value": -1}
{"compound": "Cn1ccc(C(O)C(S[C@@H]2O[C@H](CO)[C@H](O)[C@H](n3cc(-c4cc(F)c(F)c(F)c4)nn3)[C@H]2O)C(=O)N2CCC2)n1 (some centres unmarked) [Example 2.65.206.]", "target-system": "human Gal-1 (hGal-1) (Homo sapiens, UniProt P09382)", "label-value": -1}
{"compound": "CCN(C)C(=O)[C@@H](S[C@@H]1O[C@H](CO)[C@H](O)[C@H](n2cc(-c3cc(F)c(F)c(F)c3)nn2)[C@H]1O)C1(O)CCN(C(=O)OC)CC1 [Example 2.50.203S.]", "target-system": "human Gal-1 (hGal-1) (Homo sapiens, UniProt P09382)", "label-value": 1}
{"compound": "CCN(C)C(=O)C(S[C@@H]1O[C@H](CO)[C@H](O)[C@H](n2cc(-c3cc(F)c(C)c(F)c3)nn2)[C@H]1O)C1(O)CCOCC1 (some centres unmarked) [Example 3.41.203.]", "target-system": "human Gal-1 (hGal-1) (Homo sapiens, UniProt P09382)", "label-value": -1}

---

Molecular target: human Gal-1 (hGal-1) (Homo sapiens, UniProt P09382)
reported-metric: IC50 (nM)

{"compound": "CCN(C)C(=O)[C@@H](S[C@@H]1O[C@H](CO)[C@H](O)[C@H](n2cc(-c3cc(F)c(F)c(F)c3)nn2)[C@H]1O)C1(O)CCN(S(=O)(=O)C2CC2)CC1 [Example 2.51.203S.]", "reported-metric": "IC50", "unit-spec": "nM", "obs-value": 30}
{"compound": "CO[C@@H]1[C@@H](n2cc(-c3cc(F)c(F)c(F)c3)nn2)[C@@H](O)[C@@H](CO)O[C@H]1SC(C(=O)NC(C)C)C1(O)CCC(F)(F)CC1 (stereo partly drawn) [Example 2.44.251.I.]", "reported-metric": "IC50", "unit-spec": "nM", "obs-value": 190}
{"compound": "CN(CC(C)(C)F)C(=O)C(S[C@@H]1O[C@H](CO)[C@H](O)[C@H](n2cc(-c3cc(F)c(F)c(F)c3)nn2)[C@H]1O)C1(O)CCC1 (stereo partly drawn) [Example 2.34.222.]", "reported-metric": "IC50", "unit-spec": "nM", "obs-value": 220}

---

Entries below carry reported IC50 on human Gal-1 (hGal-1) (Homo sapiens).
reported-metric: IC50

{"compound": "CCN(C(=O)[C@H](S[C@@H]1O[C@H](CO)[C@H](O)[C@H](n2cc(-c3cc(F)c(F)c(F)c3)nn2)[C@H]1OC)C1(O)CCC(F)(F)CC1)C1CC1 [Example 2.44.238R.I.]", "reported-metric": "IC50", "obs-value": "> 100000 nM"}
{"compound": "CCN(C(=O)[C@@H](S[C@@H]1O[C@H](CO)[C@H](O)[C@H](n2cc(-c3cc(F)c(F)c(F)c3)nn2)[C@H]1OC)C1(O)CCC(F)(F)CC1)C1CC1 [Example 2.44.238S.I.]", "reported-metric": "IC50", "obs-value": "30 nM"}
{"compound": "CN(CC1CC1)C(=O)[C@@H](S[C@@H]1O[C@H](CO)[C@H](O)[C@H](n2cc(-c3cc(F)c(F)c(F)c3)nn2)[C@H]1O)C1(O)CCC1 [Example 2.34.218S.]", "reported-metric": "IC50", "obs-value": "70 nM"}
{"compound": "CN(CC(F)(F)F)C(=O)[C@@H](S[C@@H]1O[C@H](CO)[C@H](O)[C@H](n2cc(-c3cc(F)c(F)c(F)c3)nn2)[C@H]1O)C1(O)CCCCC1 [Example 2.39.219S.]", "reported-metric": "IC50", "obs-value": "100 nM"}
{"compound": "CO[C@@H]1[C@@H](n2cc(-c3cc(F)c(F)c(F)c3)nn2)[C@@H](O)[C@@H](CO)O[C@H]1S[C@H](C(=O)N1CCC(F)(F)CC1)C1(O)CCC(F)(F)CC1 [Example 2.44.226S.I.]", "reported-metric": "IC50", "obs-value": "70 nM"}
